tested on: Escherichia coli; test: Antibacterial activity against Escherichia coli harboring tolC deletion mutant assessed as reduction in microbial growth incubated for 16 hrs by serial dilution method; assay type: functional
Value Kind: MIC (µM)
Reply numerically in µM, unit not repeated.

{"columns": ["Compound", "MIC, µM"],
 "data": [
  ["Cc1cnc(NC(=O)C2CN(c3cccc(Cl)c3)N(c3cccc(Cl)c3)C2=O)s1 (stereo unspecified)", 40],
  ["O=C(Nc1ccc2[nH]cnc2c1)C1CN(c2cccc(Cl)c2)N(c2cccc(Cl)c2)C1=O (stereo unspecified)", 18]
]}

Prompt line: Tell me its MIC given O=C1SCCC1NC(=O)C1CN(c2cccc(Cl)c2)N(c2cccc(Cl)c2)C1=O (stereo unspecified) as the entry.
Response line: 17

Prompt line: Tell me its MIC given C[C@@H]1O[C@@H]1P(=O)(O)O [FOSFOMYCIN] as the entry.
Response line: 89

Prompt line: Tell me its MIC given O=C1NC(=O)c2cc(NC(=O)C3CN(c4cccc(Cl)c4)N(c4cccc(Cl)c4)C3=O)ccc21 (stereo unspecified) as the entry.
Response line: 17

Prompt line: Tell me its MIC given O=C(Nc1ccc2cn[nH]c2c1)C1CN(c2cccc(Cl)c2)N(c2cccc(Cl)c2)C1=O (stereo unspecified) as the entry.
Response line: 20

Prompt line: Tell me its MIC given CSc1nnc(NC(=O)C2CN(c3cccc(Cl)c3)N(c3cccc(Cl)c3)C2=O)s1 (stereo unspecified) as the entry.
Response line: 38

---

biological target: UDP-N-acetylglucosamine 1-carboxyvinyltransferase (Escherichia coli K-12, UniProt P0A749); assay: Inhibition of Escherichia coli K12 His-tagged MurA expressed in Escherichia coli BL21 cells using UNAG as substrate pre incubated for 15 mins followed by substrate addition and measured after 15 mins by microplate reader analysis
Sequence (P0A749 whole entry): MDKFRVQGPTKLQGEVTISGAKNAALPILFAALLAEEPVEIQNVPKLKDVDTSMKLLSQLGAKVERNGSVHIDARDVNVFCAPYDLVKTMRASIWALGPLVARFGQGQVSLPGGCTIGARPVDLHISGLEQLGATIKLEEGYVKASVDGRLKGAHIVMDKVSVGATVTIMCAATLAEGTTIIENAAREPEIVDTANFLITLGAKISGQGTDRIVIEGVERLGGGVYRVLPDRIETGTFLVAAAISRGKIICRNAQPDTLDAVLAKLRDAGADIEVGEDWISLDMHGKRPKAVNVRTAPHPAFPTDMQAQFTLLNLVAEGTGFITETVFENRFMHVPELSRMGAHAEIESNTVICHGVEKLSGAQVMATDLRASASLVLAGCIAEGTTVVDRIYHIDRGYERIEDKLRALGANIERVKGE
# pIC50 values compiled below
Remember, pIC50 is on a log scale: it is -log10 of the molar concentration.

The examples below pair each entry with its known result.
{"columns": ["Molecule", "pIC50"],
 "data": [
  ["O=C(Nc1nc(C(F)(F)F)cs1)C1CN(c2cccc(Cl)c2)N(c2cccc(Cl)c2)C1=O (configuration not stated)", 4.41],
  ["O=C(Nc1ccc2[nH]ncc2c1)C1CN(c2cccc(Cl)c2)N(c2cccc(Cl)c2)C1=O (configuration not stated)", 4.36],
  ["O=C(Nc1nc2ccccc2s1)C1CN(c2cccc(Cl)c2)N(c2cccc(Cl)c2)C1=O (configuration not stated)", 4.74]
]}

Prompt line: Tell me its pIC50 given N#Cc1cnc(NC(=O)C2CN(c3cccc(Cl)c3)N(c3cccc(Cl)c3)C2=O)s1 (configuration not stated) as the entry.
Response line: 4.96

Prompt line: Tell me its pIC50 given CSc1nnc(NC(=O)C2CN(c3cccc(Cl)c3)N(c3cccc(Cl)c3)C2=O)s1 (configuration not stated) as the entry.
Response line: 4.57

Prompt line: Tell me its pIC50 given Cc1cnc(NC(=O)C2CN(c3cccc(Cl)c3)N(c3cccc(Cl)c3)C2=O)s1 (configuration not stated) as the entry.
Response line: 4.66

Prompt line: Tell me its pIC50 given O=C(Nc1ccc2cn[nH]c2c1)C1CN(c2cccc(Cl)c2)N(c2cccc(Cl)c2)C1=O (configuration not stated) as the entry.
Response line: 4.45

Prompt line: Tell me its pIC50 given O=C(Nc1ccc2[nH]cnc2c1)C1CN(c2cccc(Cl)c2)N(c2cccc(Cl)c2)C1=O (configuration not stated) as the entry.
Response line: 4.47

Prompt line: Tell me its pIC50 given O=C(Nc1ncc([N+](=O)[O-])s1)C1CN(c2cccc(Cl)c2)N(c2cccc(Cl)c2)C1=O (configuration not stated) as the entry.
Response line: 5.01

Prompt line: Tell me its pIC50 given O=C1NC(=O)c2cc(NC(=O)C3CN(c4cccc(Cl)c4)N(c4cccc(Cl)c4)C3=O)ccc21 (configuration not stated) as the entry.
Response line: 4.95

Prompt line: Tell me its pIC50 given Cc1csc(NC(=O)C2CN(c3cccc(Cl)c3)N(c3cccc(Cl)c3)C2=O)n1 (configuration not stated) as the entry.
Response line: 4.41

Prompt line: Tell me its pIC50 given O=C(Nc1ncc([N+](=O)[O-])s1)C1CN(c2ccc(Cl)cc2)N(c2ccc(Cl)cc2)C1=O (configuration not stated) as the entry.
Response line: 4.99
